System: P. aeruginosa 2297-con (AmpC derepressed)
experiment: MIC determination, broth microdilution (CLSI)
Format: cell-based
experimental-setup: Pseudomonas aeruginosa, read-out: strain 8 MIC, strain 8
recorded-endpoint: log10 of MIC (log10 of the value in µg/mL)
Base-10 log of MIC, unit µg/mL.

Solved cases below.
INSERT INTO results (molecule, measured) VALUES
  ('C[C@H]1[C@H](NC(=O)/C(=N\OCCSc2ccc(C(=N)N)cc2)c2csc(N)n2)C(=O)N1S(=O)(=O)O', 1.20),
  ('CC1(C)[C@H](NC(=O)/C(=N\OCCOc2ccc(C(=N)NC3CNNC3)cc2)c2csc(N)n2)C(=O)N1OS(=O)(=O)O', 0.90),
  ('CC1(C)[C@H](NC(=O)/C(=N\O[C@@H](COc2ccc(C(=N)NC3CCCNC3)cc2)C(=O)O)c2csc(N)n2)C(=O)N1OS(=O)(=O)O (stereo partly drawn)', 0.00),
  ('CC1(C)[C@H](NC(=O)/C(=N\O[C@@H](COc2ccc(C(=N)NC3CNC3)cc2)C(=O)O)c2csc(N)n2)C(=O)N1OS(=O)(=O)O', 0.00),
  ('C[C@@H]1[C@H](NC(=O)/C(=N\OCCOc2ccc(C(=N)N)cc2)c2csc(N)n2)C(=O)N1S(=O)(=O)O', 1.20),
  ('CNC(=N)c1ccc(OCCO/N=C(\C(=O)N[C@@H]2C(=O)N(S(=O)(=O)O)[C@H]2C)c2csc(N)n2)cc1', 1.51);

In: # lookup: log10 of MIC of C[C@H]1[C@H](NC(=O)/C(=N\OCCOc2ccc(C(=N)N)cc2COC=O)c2csc(N)n2)C(=O)N1S(=O)(=O)O
Out: 1.51

In: # lookup: log10 of MIC of CC1(C)[C@H](NC(=O)/C(=N\OCCOc2ccc(C(=N)NCC(=O)O)cc2)c2csc(N)n2)C(=O)N1OS(=O)(=O)O
Out: 1.51

In: # lookup: log10 of MIC of CC1(C)[C@H](NC(=O)/C(=N\OC(COc2ccc(C(=N)N)c(O)c2)C(=O)O)c2csc(N)n2)C(=O)N1OS(=O)(=O)O (mixture of isomers) [Example 34A]
Out: 1.20

In: # lookup: log10 of MIC of N=C(N)c1ccc(OCCO/N=C(\C(=O)NC2C(=O)N(OS(=O)(=O)O)C23CCCC3)c2csc(N)n2)cc1 (stereo not drawn)
Out: 1.51

In: # lookup: log10 of MIC of CC1(C)[C@H](NC(=O)/C(=N\OCCOc2ccc(C(=N)N)cc2)c2csc(N)n2)C(=O)N1OS(=O)(=O)O
Out: 0.60

In: # lookup: log10 of MIC of CC1(C)[C@H](NC(=O)/C(=N\OCCOc2cnc(C(=N)N)c(O)c2)c2csc(N)n2)C(=O)N1OS(=O)(=O)O
Out: 0.90

---

Tested on: P. aeruginosa PAO1
experiment: MIC determination, broth microdilution (CLSI)
Assay type: cell-based
experimental-setup: Pseudomonas aeruginosa, PAO1, strain 6
Listed next: entries and their corresponding MIC.
Please state the figure in µg/mL; there is no need to write the unit.

Solved cases below.
INSERT INTO measurements (compound, recorded_endpoint, measured) VALUES
  ('C[C@H]1[C@H](NC(=O)/C(=N\OCCOc2ccc(C(=N)N)cc2Br)c2csc(N)n2)C(=O)N1S(=O)(=O)O', 'MIC', 8),
  ('C[C@H]1[C@H](NC(=O)/C(=N\OCCCOc2ccc(C(=N)N)cc2)c2csc(N)n2)C(=O)N1S(=O)(=O)O', 'MIC', 8),
  ('CC1(C)[C@H](NC(=O)/C(=N\O[C@@H](COc2ccc(C(=N)NCCNc3ncccn3)cc2)C(=O)O)c2csc(N)n2)C(=O)N1OS(=O)(=O)O', 'MIC', 8),
  ('CC1(C)[C@H](NC(=O)/C(=N\OCCOc2ccc(C(=N)N)nn2)c2csc(N)n2)C(=O)N1OS(=O)(=O)O', 'MIC', 8),
  ('CC1(C)[C@H](NC(=O)/C(=N\OCCSc2ccc(C(=N)N)cc2)c2csc(N)n2)C(=O)N1OS(=O)(=O)O', 'MIC', 8);

In: # lookup: MIC of CC1(C)[C@H](NC(=O)/C(=N\OCCOc2ccc(C3=NCC(CN)N3)cc2)c2csc(N)n2)C(=O)N1OS(=O)(=O)O (stereo partly shown)
Out: 2

In: # lookup: MIC of CC1(C)[C@H](NC(=O)/C(=N\OC(COc2ccc(C(=N)N)cc2)C(N)=O)c2csc(N)n2)C(=O)N1OS(=O)(=O)O (stereo partly shown)
Out: 8

In: # lookup: MIC of CC1(C)[C@H](NC(=O)/C(=N\O[C@@H](COc2ccc(C(=N)NC3CCNCC3)cc2)C(=O)O)c2csc(N)n2)C(=O)N1OS(=O)(=O)O
Out: 0.5

In: # lookup: MIC of CNCCNC(=N)c1ccc(OC[C@H](O/N=C(\C(=O)N[C@@H]2C(=O)N(OS(=O)(=O)O)C2(C)C)c2csc(N)n2)C(=O)O)cc1
Out: 1

In: # lookup: MIC of CN1CC(NC(=N)c2ccc(OC[C@H](O/N=C(\C(=O)N[C@@H]3C(=O)N(OS(=O)(=O)O)C3(C)C)c3csc(N)n3)C(=O)O)cc2)C1
Out: 2

meta.source: patent US9556165B2
